- tested target: Papain (Carica papaya) (UniProt P00784)
- Sequence (whole entry): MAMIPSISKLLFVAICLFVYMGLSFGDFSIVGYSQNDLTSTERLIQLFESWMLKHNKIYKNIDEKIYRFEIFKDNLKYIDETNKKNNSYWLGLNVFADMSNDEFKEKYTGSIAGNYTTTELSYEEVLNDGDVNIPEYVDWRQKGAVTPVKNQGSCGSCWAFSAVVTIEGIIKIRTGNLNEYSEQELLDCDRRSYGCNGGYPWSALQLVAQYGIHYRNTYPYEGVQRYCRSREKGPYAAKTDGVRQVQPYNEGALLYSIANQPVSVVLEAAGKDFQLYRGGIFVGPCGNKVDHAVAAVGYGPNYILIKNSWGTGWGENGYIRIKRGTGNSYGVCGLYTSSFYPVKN
- assay protocol: Inhibition of Carica papaya papain at 50 uM preincubated before DTT addition by fluorescence measurement
Activity calls are given as the source filed them. The rule behind the calls is not given here.
Outcomes: active, inactive

1) CC(C)=CC[C@H]1C[C@@]2(CC=C(C)C)C(=O)C(C(=O)c3ccccc3)=C(O)[C@H](C2=O)C1(C)C :: inactive
2) O=C(c1ccccc1)c1ccccc1 :: inactive
3) O=C(c1ccccc1O)c1ccc(O)cc1O :: inactive
4) CC(C)=CCC[C@]1(C)[C@@H](CC=C(C)C)C[C@]2(CC=C(C)C)C(=O)[C@@]1(CC=C(C)C)C(=O)C(C(=O)c1ccc(O)c(O)c1)=C2O :: active

###

- tested target: Cathepsin B (Homo sapiens, UniProt P07858)
reported metric: IC50 (µM)

1. O=C(c1ccccc1)c1ccccc1 :: 289

###

- assay protocol: Inhibition of trypsin by spectrofluorimetry
# Lookup of reported IC50 keyed by entry
reported metric: IC50 (µM)

1) O=C(c1ccccc1O)c1ccc(O)cc1O :: 301
2) CC(C)=CC[C@H]1C[C@@]2(CC=C(C)C)C(=O)C(C(=O)c3ccccc3)=C(O)[C@H](C2=O)C1(C)C :: 104
3) O=C(c1ccccc1)c1ccccc1 :: 3470

###

- tested target: UniProt P00784
- assay protocol: Inhibition of Carica papaya papain at 50 uM preincubated for 5 mins before addition of increasing concentration of substrate Z-FR-AMC
Activity calls are given as the source filed them. The calls are words filed in the database; no cut-off is given here.
Outcomes: label 1 (active), label 0 (inactive)

1. O=C(c1ccccc1)c1ccccc1 :: label 0
2. O=C(c1ccccc1O)c1ccc(O)cc1O :: label 0
3. CC(C)=CC[C@H]1C[C@@]2(CC=C(C)C)C(=O)C(C(=O)c3ccccc3)=C(O)[C@H](C2=O)C1(C)C :: label 0
4. CC(C)=CCC[C@]1(C)[C@@H](CC=C(C)C)C[C@]2(CC=C(C)C)C(=O)[C@@]1(CC=C(C)C)C(=O)C(C(=O)c1ccc(O)c(O)c1)=C2O :: label 1

###

The reader will find pIC50 measurements below, all made with UniProtKB P00784.
pIC50: −log10 of the molar value.
reported metric: pIC50

1. O=C(c1ccccc1O)c1ccc(O)cc1O :: 3.16
2. CC(C)=CCC[C@]1(C)[C@@H](CC=C(C)C)C[C@]2(CC=C(C)C)C(=O)[C@@]1(CC=C(C)C)C(=O)C(C(=O)c1ccc(O)c(O)c1)=C2O :: 5.72
3. O=C(c1ccccc1)c1ccccc1 :: 2.46
4. CC(C)=CC[C@H]1C[C@@]2(CC=C(C)C)C(=O)C(C(=O)c3ccccc3)=C(O)[C@H](C2=O)C1(C)C :: 3.88
